# Tested on: AREc32 cells
# experimental.details: Cytotoxicity with ImageXpress high-content imaging, MitoOxTox
# test.parameters: 10% reduction in cell viability; AREc32, 24 h exposure
Quick reference for Cytotoxicity ImageExpress IC10 among some compounds
Give the number; µM is assumed, so skip it.

Would you please look over these solved cases?
compound	Cytotoxicity ImageExpress IC10 / µM
CO/C=C(/C(=O)OC)c1ccccc1COc1cccc(C(F)(F)F)n1	80.1
CC(C)(C)c1ccc(CCOc2ncnc3ccccc23)cc1	110

Q: I have this compound here, `CCCCCc1ccc(O)cc1` , and I need its recorded Cytotoxicity ImageExpress IC10.
Ans: 87.6

Q: I have this compound here, `COc1ccc2cc3[n+](cc2c1OC)CCc1cc2c(cc1-3)OCO2` , and I need its recorded Cytotoxicity ImageExpress IC10.
Ans: 72.4

Q: I have this compound here, Cc1nc(C(F)(F)F)c(C(=O)Nc2c(Br)cc(OC(F)(F)F)cc2Br)s1 [Thifluzamide] , and I need its recorded Cytotoxicity ImageExpress IC10.
Ans: 23.4

====

# System: Nrf2-mediated oxidative stress response pathway (ARE) in AREc32 cells
# experimental.details: cells
# test.parameters: Arec32, 24 h, read-out: Oxidative stress response ECIR1.5 (M)
Quick reference for EC (induction ratio 1.5) among some molecules

molecule	recorded.measurement
CSC1=N[C@@](C)(c2ccccc2)C(=O)N1Nc1ccccc1	> 0.000239 M
COc1cc2c(cc1OC)[C@@H]1C(=O)c3ccc4c(c3O[C@@H]1CO2)C=CC(C)(C)O4	> 4.08e-05 M
CC(C)(C)c1ccc(CSc2cnn(C(C)(C)C)c(=O)c2Cl)cc1	> 0.000161 M
CC(C)(C)c1ccc(CCOc2ncnc3ccccc23)cc1	> 0.000314 M

Attention now shifts to the item below.
Q: I have this molecule here, CCCCCC[C@H]1C(=O)O[C@H](C)[C@H](NC(=O)c2cccc(NC=O)c2O)C(=O)O[C@@H](C)[C@@H]1OC(=O)CC(C)C [Antimycin A] , and I need its recorded EC (induction ratio 1.5).
Ans: > 0.000129 M

====

# Test system: AREc32 cells
# test.parameters: human
Quick reference for Cytotoxicity ImageExpress log(IC10 (M)) among some molecules
Give the number; M is assumed, so skip it.

molecule	unit.name	Cytotoxicity ImageExpress log(IC10 (M))
Oc1c(Cl)c(Cl)c(Cl)c(Cl)c1Cl [Pentachlorophenol]	M	-4.13
CC(C)Oc1cccc(NC(=O)c2ccccc2C(F)(F)F)c1 [Flutolanil]	M	-3.86
Oc1c(Cl)cc(Cl)c(Cl)c1Cc1c(O)c(Cl)cc(Cl)c1Cl [Hexachlorophene]	M	-4.97
C=C(C)[C@H]1Cc2c(ccc3c2O[C@@H]2COc4cc(OC)c(OC)cc4[C@@H]2C3=O)O1 [Rotenone]	M	-6.62

Attention now shifts to the item below.
Q: I have this molecule here, O=[N+]([O-])c1ccc(O)c([N+](=O)[O-])c1 [2,4-Dinitrophenol] , and I need its recorded Cytotoxicity ImageExpress log(IC10 (M)).
Ans: -3.37

====

Quick reference for Cytotoxicity Incucyte IC10 among some molecules
# System: AREc32 cells
# test.parameters: human, 24 h
Give the number; µM is assumed, so skip it.

smiles.text	Cytotoxicity Incucyte IC10 (µM)
CSC1=N[C@@](C)(c2ccccc2)C(=O)N1Nc1ccccc1	118
CC1=C(C(=O)Nc2ccccc2)SCCO1	1080
CC(C)(C)c1ccc(CSc2cnn(C(C)(C)C)c(=O)c2Cl)cc1	51.4

Attention now shifts to the item below.
Q: # query: Cytotoxicity Incucyte IC10 | item `Cc1ccccc1C(=O)Nc1cccc(OC(C)C)c1` | system: AREc32 cells
Ans: 58.7

====

# Test system: AREc32 cells
# experimental.details: Cytotoxicity with ImageXpress high-content imaging, MitoOxTox
# test.parameters: logarithm of IC10; AREc32, 24 h exposure, Corning plates
test.readout: Cytotoxicity ImageExpress log(IC10 (M))
Give the number; M is assumed, so skip it.

Would you please look over these solved cases?
molecule	unit.name	recorded.measurement
N#CC(C#N)=NNc1ccc(OC(F)(F)F)cc1	M	-5.76
N#CC(C#N)=NNc1cccc(Cl)c1	M	-5.64
CCc1nn(C)c(C(=O)NCc2ccc(C(C)(C)C)cc2)c1Cl	M	-3.72
COC(=O)N(OC)c1ccccc1COc1ccn(-c2ccc(Cl)cc2)n1	M	-4.21
CCCCCc1ccc(O)cc1	M	-4.06

Attention now shifts to the item below.
Q: I have this molecule here, `CO/C=C(/C(=O)OC)c1ccccc1COc1cccc(C(F)(F)F)n1` , and I need its recorded Cytotoxicity ImageExpress log(IC10 (M)).
Ans: -4.10

====

Quick reference for MMP inhibition log(EC10 (M)) among some compounds
# Test system: mitochondrial membrane potential (MMP) in AREc32 cells
# experimental.details: Disruption of mitochondrial membrane potential (m-MPI red/green ratio), MitoOxTox
# test.parameters: logarithm of EC10; AREc32, 24 h exposure
Give the number; M is assumed, so skip it.

Q: I have this compound here, CSC1=N[C@@](C)(c2ccccc2)C(=O)N1Nc1ccccc1 [Fenamidone] , and I need its recorded MMP inhibition log(EC10 (M)).
Ans: -4.88

Q: I have this compound here, CC1=C(C(=O)Nc2ccccc2)SCCO1 [Carboxin] , and I need its recorded MMP inhibition log(EC10 (M)).
Ans: -3.82

Q: I have this compound here, `N#CC(C#N)=NNc1cccc(Cl)c1` , and I need its recorded MMP inhibition log(EC10 (M)).
Ans: -6.61

Q: I have this compound here, CC(C)(C)c1ccc(CSc2cnn(C(C)(C)C)c(=O)c2Cl)cc1 [Pyridaben] , and I need its recorded MMP inhibition log(EC10 (M)).
Ans: -8.56

Q: I have this compound here, CO/N=C(/C1=NOCCO1)c1ccccc1Oc1ncnc(Oc2ccccc2Cl)c1F [Fluoxastrobin] , and I need its recorded MMP inhibition log(EC10 (M)).
Ans: -5.22

====

Measured Cytotoxicity ImageExpress log(IC10 (M)) on AREc32 cells follows.

Would you please look over these solved cases?
compound	target.system	Cytotoxicity ImageExpress log(IC10 (M))
O=C(Nc1ccccc1-c1ccc(Cl)cc1)c1cccnc1Cl [Boscalid]	AREc32 cells	no cytotoxicity
CNC(=O)/C(=N/OC)c1ccccc1COc1cc(C)ccc1C [Dimoxystrobin]	AREc32 cells	-3.85 M
CC1=C(C(=O)Nc2ccccc2)SCCO1 [Carboxin]	AREc32 cells	no cytotoxicity
CON=C(C(=O)OC)c1ccccc1CON=C(C)c1cccc(C(F)(F)F)c1 [Trifloxystrobin]	AREc32 cells	no cytotoxicity
Cc1ccc(-c2c(Cl)nc(C#N)n2S(=O)(=O)N(C)C)cc1 [Cyazofamid]	AREc32 cells	no cytotoxicity

Attention now shifts to the item below.
Q: # query: Cytotoxicity ImageExpress log(IC10 (M)) | item CC(C)(C)c1ccc(CSc2cnn(C(C)(C)C)c(=O)c2Cl)cc1 [Pyridaben] | system: AREc32 cells
Ans: no cytotoxicity

====

Quick reference for SRcytotoxicity among some molecules
# Tested on: mitochondrial membrane potential (MMP) in AREc32 cells
# test.parameters: human
Hey, just send me the number, nothing else.

smiles.text	recorded.measurement
C=C(C)[C@H]1Cc2c(ccc3c2O[C@@H]2COc4cc(OC)c(OC)cc4[C@@H]2C3=O)O1	46
COC(=O)N(OC)c1ccccc1COc1ccn(-c2ccc(Cl)cc2)n1	295.0
Oc1c(Cl)c(Cl)c(Cl)c(Cl)c1Cl	6.6
COc1cc2c(cc1OC)[C@@H]1C(=O)c3ccc4c(c3O[C@@H]1CO2)C=CC(C)(C)O4	2215
O=[N+]([O-])c1ccc(O)c([N+](=O)[O-])c1	35.1
Oc1c(Cl)cc(Cl)c(Cl)c1Cc1c(O)c(Cl)cc(Cl)c1Cl	38.6
CC(C)Oc1cccc(NC(=O)c2ccccc2C(F)(F)F)c1	5.5
CCc1nn(C)c(C(=O)NCc2ccc(C(C)(C)C)cc2)c1Cl	33496

Q: I have this molecule here, `CC(C)(C)c1ccc(CCOc2ncnc3ccccc23)cc1` , and I need its recorded SRcytotoxicity.
Ans: 9356

====

# Test system: mitochondrial membrane potential (MMP) in AREc32 cells
# experimental.details: Disruption of mitochondrial membrane potential (m-MPI red/green ratio), MitoOxTox
# test.parameters: specificity ratio of MMP effect: IC10 (ImageXpress)/EC10 (eq 4)
Would you please tag the item yes (1) when its SRcytotoxicity is 20 or above, and no (0) when it is below?

Solved cases below.
compound	category
N#CC(C#N)=NNc1cccc(Cl)c1	no (0)
N#CC(C#N)=NNc1ccc(OC(F)(F)F)cc1	yes (1)
COc1ccc2cc3[n+](cc2c1OC)CCc1cc2c(cc1-3)OCO2	yes (1)

Q: Say whether `CCOCCc1ccc(OCCN=c2[nH]cnc(CC)c2Cl)c(C)c1C` shows SRcytotoxicity of 20 or more.
Ans: yes (1)

Q: Say whether `CCCCCc1ccc(O)cc1` shows SRcytotoxicity of 20 or more.
Ans: no (0)

Q: Say whether Cc1nc(C(F)(F)F)c(C(=O)Nc2c(Br)cc(OC(F)(F)F)cc2Br)s1 [Thifluzamide] shows SRcytotoxicity of 20 or more.
Ans: no (0)
